# experimental system: T1, LINGO-Fc (human, UniProt Q96FE5 40-538, limits assumed)
# T1 construct: not shown: Fc part
# T1 sequence: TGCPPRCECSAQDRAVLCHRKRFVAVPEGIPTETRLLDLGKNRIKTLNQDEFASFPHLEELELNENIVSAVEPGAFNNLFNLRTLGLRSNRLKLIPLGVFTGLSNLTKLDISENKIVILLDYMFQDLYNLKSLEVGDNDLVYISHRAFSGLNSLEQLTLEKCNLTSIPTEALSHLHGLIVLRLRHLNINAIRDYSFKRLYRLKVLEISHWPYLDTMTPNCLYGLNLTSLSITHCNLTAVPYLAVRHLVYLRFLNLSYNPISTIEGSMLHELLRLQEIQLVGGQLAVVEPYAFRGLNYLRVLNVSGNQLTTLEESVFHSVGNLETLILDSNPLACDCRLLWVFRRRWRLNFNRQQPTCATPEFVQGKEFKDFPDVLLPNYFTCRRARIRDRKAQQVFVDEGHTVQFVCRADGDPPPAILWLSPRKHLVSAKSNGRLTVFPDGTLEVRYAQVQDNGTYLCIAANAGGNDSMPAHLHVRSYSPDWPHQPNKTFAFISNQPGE
# protocol text: direct ELISA on LINGO-Fc; OD450 at saturation relative to Li33;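 note: binding to plate-coated LINGO-Fc read by OD450, with the value at maximal saturation divided by the corresponding Li33 value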
test readout: Plateau Ratio (ratio)

| binder | reported value |
| --- | --- |
| Li33 variant W94V (SEQ ID NO:171) (antibody, V domains shown, unchanged chain from WT Li33) VH: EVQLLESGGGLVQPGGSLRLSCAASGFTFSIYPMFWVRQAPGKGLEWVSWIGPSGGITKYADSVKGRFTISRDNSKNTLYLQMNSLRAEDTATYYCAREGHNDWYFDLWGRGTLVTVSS VL: DIQMTQSPGTLSLSPGERATLSCRASQSVSSYLAWYQQKPGQAPRLLIYDASNRATGIPARFSGSGSGTEFTLTISSLQSEDFAVYYCQQYDKVPLTFGGGTKVEIKR | 0.91 |
| Li33 variant W94S (SEQ ID NO:172) (antibody, V domains shown, unchanged chain from WT Li33) VH: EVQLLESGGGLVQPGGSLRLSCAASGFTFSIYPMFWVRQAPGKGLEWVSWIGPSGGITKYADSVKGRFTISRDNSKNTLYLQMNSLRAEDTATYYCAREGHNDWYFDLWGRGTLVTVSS VL: DIQMTQSPGTLSLSPGERATLSCRASQSVSSYLAWYQQKPGQAPRLLIYDASNRATGIPARFSGSGSGTEFTLTISSLQSEDFAVYYCQQYDKSPLTFGGGTKVEIKR | 0.99 |
| Li33 variant W50M (SEQ ID NO:150) (antibody, V domains shown, unchanged chain from WT Li33) VH: EVQLLESGGGLVQPGGSLRLSCAASGFTFSIYPMFWVRQAPGKGLEWVSMIGPSGGITKYADSVKGRFTISRDNSKNTLYLQMNSLRAEDTATYYCAREGHNDWYFDLWGRGTLVTVSS VL: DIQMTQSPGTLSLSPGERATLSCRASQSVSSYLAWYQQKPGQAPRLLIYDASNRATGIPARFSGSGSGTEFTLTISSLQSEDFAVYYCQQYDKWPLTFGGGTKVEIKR | 0.93 |
